Subject of test: UniProt Q15761
Sequence (Q15761 whole entry): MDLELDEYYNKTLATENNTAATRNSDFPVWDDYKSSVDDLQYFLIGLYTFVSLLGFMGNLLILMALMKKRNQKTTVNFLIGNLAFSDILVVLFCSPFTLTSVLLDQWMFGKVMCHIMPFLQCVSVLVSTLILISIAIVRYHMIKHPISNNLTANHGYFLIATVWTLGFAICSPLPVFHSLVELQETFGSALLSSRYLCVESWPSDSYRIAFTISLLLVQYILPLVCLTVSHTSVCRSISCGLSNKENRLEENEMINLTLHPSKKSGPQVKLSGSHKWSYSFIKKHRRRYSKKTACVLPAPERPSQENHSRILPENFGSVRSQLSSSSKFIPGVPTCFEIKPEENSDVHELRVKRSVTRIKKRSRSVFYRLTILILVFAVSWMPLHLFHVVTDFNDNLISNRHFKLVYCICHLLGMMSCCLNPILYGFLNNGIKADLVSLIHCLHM
Test method notes: Binding affinity for human Neuropeptide Y receptor type 5 in HEK293 cells
Would you kindly list IC50 for each of these molecules?
Report the figure in µM without appending any unit label.

I'm curious: which IC50 was measured for N[C@@H](CCCCNS(=O)(=O)c1ccccc1F)C(=O)NC1=NC2CCc3cc(F)ccc3C2C1 (some centres undefined) tested on UniProt Q15761? 0.202

I'm curious: which IC50 was measured for O=C(NC1=NC2CCc3cc(O)ccc3C2C1)[C@H]1CC[C@H](CNS(=O)(=O)c2ccccc2)CC1 (some centres undefined) tested on UniProt Q15761? 0.009

I'm curious: which IC50 was measured for O=C(NC1=NC2CCc3ccccc3C2C1)[C@H]1CC[C@H](CNS(=O)(=O)c2ccccc2)CC1 (some centres undefined) tested on UniProt Q15761? 0.06

Reference for the values: ChEMBL document CHEMBL1133370
